Run parameters: 353.15 K; 101.33 kPa; Liquid; Vibrating tube method
Recorded mass density for the following compounds
Experimental endpoint: mass density (kg/m3)

{"Compound": "CCn1cc[n+](C)c1.C[C@H](N)C(=O)[O-] [1-ethyl-3-methylimidazolium L-alaninate]", "Recorded result": 1101.6}
{"Compound": "CCn1cc[n+](C)c1.NCC(=O)[O-] [1-ethyl-3-methylimidazolium ammonioacetate]", "Recorded result": 1120.1}
{"Compound": "CCn1cc[n+](C)c1.O=C([O-])[C@@H]1CCCN1 [1-ethyl-3-methyl-1H-imidazolium L-prolinate]", "Recorded result": 1120.63}
{"Compound": "CC[n+]1ccn(C)c1.N[C@@H](CO)C(=O)[O-] [3-ethyl-1-methyl-1H-imidazolium L-serinate]", "Recorded result": 1159.8}
